Source of measurements: patent US6849732B2

Give pKi for every item shown.
# tested.on: matrilysin (Matr.) (Homo sapiens, UniProt P09237)
# Sequence (P09237 95-267, species assumed): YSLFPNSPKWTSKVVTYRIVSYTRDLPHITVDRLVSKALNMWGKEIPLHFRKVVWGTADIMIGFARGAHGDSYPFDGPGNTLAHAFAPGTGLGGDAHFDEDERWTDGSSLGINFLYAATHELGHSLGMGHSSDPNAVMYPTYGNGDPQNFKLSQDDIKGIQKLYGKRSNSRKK
Where a name gives a salt, the structure may show the parent alone.
The quantity pKi is defined as the negative base-10 logarithm of the molar concentration.

Using the record for CC(C)(C)OC(=O)N1CCN(S(=O)(=O)c2ccc(Oc3ccc(C#N)cc3)cc2)C(C(=O)NO)C1 (racemic) , report its pKi.
5.45

CS(=O)(=O)N1CCN(S(=O)(=O)c2ccc(Oc3ccc(Cl)cc3)cc2)[C@@H](C(=O)NO)C1 ?
7.55

Another: O=C(NO)[C@H]1CNCCN1S(=O)(=O)c1ccc(Oc2ccc(F)cc2)cc1 [Example 10(b), hydrochloride]
6.44

Now this one: CC(=O)N1CCN(S(=O)(=O)c2ccc(Oc3ccccc3)cc2)C(C(=O)NO)C1 (racemic)
6.95

Same thing, different compound: O=C(NO)C1CSCCN1S(=O)(=O)c1ccc(Oc2ccc(Br)cc2)cc1 (racemic)
6.77
